Test system: OVCAR-3 ovarian
Experiment: NCI tumour cell line growth inhibition, 48 h
Provide the reported GI50 of each item.

Per the records, this compound ( OC(CNCC1CCCO1)Cn1c2ccc(Cl)cc2c2cc(Cl)ccc21 (configuration not stated) ) has GI50 equal to 1.82 µM

Per the records, this compound ( Cc1cc2[nH]c(=O)c3c4ccccc4cn3c2cc1C ) has GI50 equal to 14 µM

Per the records, this compound ( Nc1nc(N)c2c(n1)NC(c1ccc(F)cc1)C1CCc3ccccc3C1=N2 (configuration not stated) ) has GI50 equal to 4.15 µM

Per the records, this compound ( CCN1Cc2c(ccc(F)c2C#N)O[C@@H](C)CNC(=O)c2c(N)nn3ccc1nc23 ) has GI50 equal to 3.37 µM

Per the records, this compound ( COC(=O)CCC1CCC(c2cc(F)ccc2F)(S(=O)(=O)c2ccc(Cl)cc2)CC1 (configuration not stated) ) has GI50 equal to 83.7 µM

Per the records, this compound ( COc1ccc(NC(=O)COCCOCCNC[C@@H]2C(=O)O[C@H]3[C@H]2CC/C(COC(=O)OC/C2=C/CC[C@@]4(C)O[C@H]4[C@H]4OC(=O)[C@@H](CN(C)C)[C@@H]4CC2)=C\CC[C@@]2(C)O[C@@H]32)c(O)c1C(N)=O ) has GI50 equal to 1.47 µM

Per the records, this compound ( COc1ccc(/C=C(\C#N)n2nnc3ccccc32)cc1 ) has GI50 equal to 0.046 µM

Per the records, this compound ( S=c1ssc(Oc2ccccc2)c1Cl ) has GI50 equal to 7.74 µM

Per the records, this compound ( O=S(=O)(c1cccc2c(Cl)cccc12)N1CCCNCC1 ) has GI50 equal to 14.6 µM

Per the records, this compound ( Oc1ccccc1C=Nc1nc(SCc2ccccc2)nc2[nH]ncc12 ) has GI50 equal to 64.5 µM

Per the records, this compound ( COc1cc(/C=C/C(=O)c2c(C)nc3ccccc3c2/C=C/c2ccc(C)cc2)cc(OC)c1OC ) has GI50 equal to 1.76 µM

Per the records, this compound ( Clc1ccc2nnnn2n1 ) has GI50 equal to 2.6 µM

---

System: NCI-H226 lung
Assay: NCI tumour cell line growth inhibition, 48 h
Provide the reported GI50 of each item.

Fill in: NCI-H226 lung GI50 for COc1cc(NC(=O)CSc2nc3ccc(C)cc3c(=O)n2Cc2ccccc2)cc(OC)c1OC = 3.2 µM

Fill in: NCI-H226 lung GI50 for COc1ccc(-n2cc(-c3cc(OC)c(OC)c(OC)c3)nc2SCc2ccccc2)cc1OC = > 78.7 µM

Fill in: NCI-H226 lung GI50 for OC(CNCC1CCCO1)Cn1c2ccc(Cl)cc2c2cc(Cl)ccc21 (stereo not drawn) = 2.42 µM

Fill in: NCI-H226 lung GI50 for Cc1cc2[nH]c(=O)c3c4ccccc4cn3c2cc1C = 15.1 µM

Fill in: NCI-H226 lung GI50 for COC(=O)CCC1CCC(c2cc(F)ccc2F)(S(=O)(=O)c2ccc(Cl)cc2)CC1 (stereo not drawn) = 86.8 µM

Fill in: NCI-H226 lung GI50 for NC1=C(c2nc(-c3ccccc3)cs2)C(c2ccc(Br)cc2)c2c(c3ccccc3oc2=O)O1 (stereo not drawn) = 22.3 µg/mL

Fill in: NCI-H226 lung GI50 for S=c1ssc(Oc2ccccc2)c1Cl = 27 µM

Fill in: NCI-H226 lung GI50 for CCCCCCCCCCC(C(O)c1ccccc1)N1CCCCC1 (stereo not drawn) = 2.91 µM

Fill in: NCI-H226 lung GI50 for CC(NCCC(=O)N(CCC(=O)N(CCC(=O)N(CCC(=O)N(CCC(=O)N(CCC(=O)N(CCC(=O)N(CCC(=O)N(CCC(=O)N(CCC(=O)O)[C@H](C)c1ccccc1)[C@H](C)c1ccccc1)[C@H](C)c1ccccc1)[C@H](C)c1ccccc1)[C@H](C)c1ccccc1)[C@H](C)c1ccccc1)[C@H](C)c1ccccc1)[C@H](C)c1ccccc1)[C@H](C)c1ccccc1)c1ccccc1 (stereo partly drawn) = 3.62 µM

Fill in: NCI-H226 lung GI50 for CC(C)COCC(CN(Cc1ccccc1)c1ccccc1)N1CCCC1 (stereo not drawn) = 2.28 µM

Fill in: NCI-H226 lung GI50 for COc1ccc(S(=O)(=O)Nc2cc(/C=C\c3cc(OC)c(OC)c(OC)c3)ccc2OC)cc1 = 12.8 µM

Fill in: NCI-H226 lung GI50 for C=C1C(=O)O[C@H]2[C@H]1CCC(/C=N/c1ncc(Br)cc1N)=C\CC[C@@]1(C)O[C@@H]21 = 2.88 µM

Fill in: NCI-H226 lung GI50 for COc1ccc(NC(=O)COCCOCCNC[C@@H]2C(=O)O[C@H]3[C@H]2CC/C(COC(=O)OC/C2=C/CC[C@@]4(C)O[C@H]4[C@H]4OC(=O)[C@@H](CN(C)C)[C@@H]4CC2)=C\CC[C@@]2(C)O[C@@H]32)c(O)c1C(N)=O = 8.33 µM

Fill in: NCI-H226 lung GI50 for COC(=O)C1CCCN1C(=O)[C@@H]1CCCN1C(=O)[C@H](Cc1c[nH]c2ccccc12)NC(=S)Nc1cc(C(F)(F)F)cc(C(F)(F)F)c1 (stereo partly drawn) = 2.26 µM

Fill in: NCI-H226 lung GI50 for COc1cc(/C=C/C(=O)c2c(C)nc3ccccc3c2/C=C/c2ccc(C)cc2)cc(OC)c1OC = 2.18 µM

Fill in: NCI-H226 lung GI50 for C=C(C)[C@@H]1CC[C@]2(C)[C@H](CC=C3[C@@H]4[C@@H](C)[C@H](C)CC[C@]4(C(N)=O)CC[C@]32C)[C@@]1(C)CCC#N = 5.09 µM

Fill in: NCI-H226 lung GI50 for COc1ccccc1N1CCN(CCc2c[nH]c3cc4c(cc23)OCO4)CC1 = 29.9 µM

Fill in: NCI-H226 lung GI50 for O=c1[nH]c(=O)c2cc(C3CC(O)C(CO)O3)ccc2[nH]1 (stereo not drawn) = > 100 µM

---

Test system: UACC-62 melanoma
Experiment: NCI tumour cell line growth inhibition, 48 h; in the data active = GI50 below about 0.43 µM; inactive = the rest
Your answer must be one of the following: active, inactive

QUERY: Tell me the assay call for COc1ccccc1N1CCN(CCc2c[nH]c3cc4c(cc23)OCO4)CC1 please.
RESULT: inactive

QUERY: Tell me the assay call for CC(C)COCC(CN(Cc1ccccc1)c1ccccc1)N1CCCC1 (centres undefined) please.
RESULT: inactive

QUERY: Tell me the assay call for O=C(Nc1ccc2[nH]c(=S)sc2c1)Nc1ccccc1F please.
RESULT: inactive

QUERY: Tell me the assay call for COc1ccc(-n2cc(-c3cc(OC)c(OC)c(OC)c3)nc2SCc2ccccc2)cc1OC please.
RESULT: inactive

QUERY: Tell me the assay call for C=C1C(=O)O[C@H]2[C@H]1CCC(/C=N/c1ncc(Br)cc1N)=C\CC[C@@]1(C)O[C@@H]21 please.
RESULT: inactive

QUERY: Tell me the assay call for CCC[CH2][Sn]([CH2]CCC)([CH2]CCC)[O]C(=O)c1ccc(Cl)cc1Cl please.
RESULT: active

QUERY: Tell me the assay call for C=C(C)[C@@H]1CC[C@]2(C)[C@H](CC=C3[C@@H]4[C@@H](C)[C@H](C)CC[C@]4(C(N)=O)CC[C@]32C)[C@@]1(C)CCC#N please.
RESULT: inactive

QUERY: Tell me the assay call for Cc1cc2[nH]c(=O)c3c4ccccc4cn3c2cc1C please.
RESULT: inactive

QUERY: Tell me the assay call for Oc1ccccc1CNCC12CC3CC(CC(C3)C1)C2 please.
RESULT: inactive

---

Tested on: SF-295 CNS
Assay: NCI tumour cell line growth inhibition, 48 h
Provide the reported TGI of each item.

Per the records, this compound ( Nc1c([N+](=O)[O-])cc2c3c(cccc13)CC2 ) has TGI equal to > 100 µM

Per the records, this compound ( COC(=O)C1=C(C(=O)OC)SC(=C(Cl)C(=S)Nc2ccccc2O)S1 ) has TGI equal to 24.9 µM

Per the records, this compound ( C[n+]1c2ccccc2c(NC(CS)C(=O)O)c2ccccc21 (stereo unspecified) ) has TGI equal to 77.7 µM

Per the records, this compound ( COc1ccc(N2C(=O)C(C)SC2c2cc3cc(Br)ccc3nc2Cl)cc1 (stereo unspecified) ) has TGI equal to > 100 µM

Per the records, this compound ( COc1c(Br)cc(/C=C(\C#N)c2cccnc2)cc1Br ) has TGI equal to > 100 µM

Per the records, this compound ( O=c1n(-c2ccccc2)c(=O)n2n1C1Cc3ccccc3C12 (stereo unspecified) ) has TGI equal to > 100 µM

Per the records, this compound ( O=C(O)c1cc(-c2ccncc2)nc2ccccc12 ) has TGI equal to > 100 µM

Per the records, this compound ( C/C=C(\C)C(=O)OC1C(C)=C2C(C1OC(=O)CCCC)C(C)(OC(C)=O)CC(OC(=O)CCCC)C1(O)C2OC(=O)C1(C)O (stereo unspecified) ) has TGI equal to > 100 µM

Per the records, this compound ( OC(c1cc(-c2ccc(Cl)cc2)nc2ccccc12)C1CCCCN1 (stereo unspecified) ) has TGI equal to 3.67 µM

Per the records, this compound ( Cc1ccc2nc(-c3ccccc3)c(N=O)n2c1 ) has TGI equal to > 100 µM

Per the records, this compound ( CN1CC[C@]2(C)c3cc(O)ccc3CC3CCCC1C32C (stereo partly specified) ) has TGI equal to > 100 µM
